Data provenance is patent US8247530B2.

biological target: MC1-R (B-16 mouse melanoma cells) (Mus musculus, UniProt Q01727); construct: B-16 mouse melanoma cells (containing MC1-R); endogenous in cells; assay: Competitive inhibition binding assay using [I125]-NDP-α-MSH, MC1-R; details: radioligand [I125]-NDP-α-MSH, B-16 mouse melanoma membranes
Sequence (Q01727 whole entry): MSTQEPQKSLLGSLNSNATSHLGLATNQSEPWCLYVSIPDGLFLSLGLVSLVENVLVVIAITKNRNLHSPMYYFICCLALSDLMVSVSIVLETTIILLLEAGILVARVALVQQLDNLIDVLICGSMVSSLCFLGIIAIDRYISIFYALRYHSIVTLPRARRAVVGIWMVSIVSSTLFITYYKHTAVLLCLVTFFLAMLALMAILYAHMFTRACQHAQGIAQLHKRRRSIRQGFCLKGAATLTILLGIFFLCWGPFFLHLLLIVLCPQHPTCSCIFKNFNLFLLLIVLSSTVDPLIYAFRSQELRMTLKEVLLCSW
Where a SMILES comes first, the peptide text is derived from it. Bridges are numbered along the chain shown (N, C = ends). [ ]: non-standard residue; d: D form. 1Nal = N[C@@H](Cc1cccc2ccccc12)C(=O)O
Recorded measurements of Ki, one per entry
Experimental Readout: Ki (µM)

Compound: CCNC(=O)[C@@H]1CCCCNC(=O)C[C@H](NC(C)=O)C(=O)N[C@@H](Cc2c[nH]c3ccccc23)C(=O)N[C@H](Cc2ccccc2)C(=O)N[C@@H](CCCNC(=N)N)C(=O)N[C@@H](Cc2cccc3ccccc23)C(=O)N1 [Example 14] (Ac-DW[dF]R[1Nal]K-NHEt; lactam 1-6 (inferred))
Units Label: µM
Assay Result: 0.166
//
Compound: CC(=O)N[C@H]1CC(=O)NCCCC[C@@H](C(=O)N(C)C)NC(=O)[C@H](Cc2c[nH]c3ccccc23)NC(=O)[C@H](CCCNC(=N)N)NC(=O)[C@@H](Cc2ccccc2)NC(=O)[C@H](Cc2c[nH]cn2)NC1=O
Units Label: µM
Assay Result: 0.002
